# TEST NAME: Rat liver microsome stability assay
# Format: in vitro ADME
# TEST CONDITIONS: rat liver microsomes (male Sprague-Dawley), 0.5 μM test compound, 0.25 mg/mL microsomal protein, pH 7.4, 37° C.; read-out: Stability in rat liver microsomes (t1/2 in minutes)
The reader will find reported log10 half-life at 0.5 μM values listed item by item below.
Log10 applied to half-life at 0.5 μM; unit prior to transform: min.

| MOLECULE | log10 half-life at 0.5 μM |
| --- | --- |
| CCS(=O)(=O)Nc1ccc(OC2CCCOC2)c(-c2cn(C)c(=O)c3[nH]ccc23)c1 (stereo not shown) | 1.11 |
| CCCS(=O)(=O)Nc1ccc(Oc2ccc(F)cc2F)c(-c2cn(C)c(=O)c3[nH]ccc23)c1 | 1.58 |
| CCCS(=O)(=O)Nc1ccc(OC2CCCOC2)c(-c2cn(C)c(=O)c3[nH]ccc23)c1 (stereo not shown) | 0.90 |
| CCS(=O)(=O)Nc1ccc(Oc2ccc(F)cc2F)c(-c2cn(C)c(=O)c3[nH]cc(CN4CCOCC4)c23)c1 | 1.51 |
| Cn1cc(-c2cc(NS(C)(=O)=O)ccc2OC2CCCCC2)c2cc[nH]c2c1=O | 0.78 |
| Cn1cc(-c2cc(S(C)(=O)=O)ccc2OC[C@@H]2CCC(=O)N2)c2cc[nH]c2c1=O | 2.03 |

Name the recorded log10 half-life at 0.5 μM of the item CNS(=O)(=O)c1cnc(OCC2CC2)c(-c2cn(C)c(=O)c3[nH]ccc23)c1 in your answer.
1.36

Name the recorded log10 half-life at 0.5 μM of the item Cn1cc(-c2cc(CS(C)(=O)=O)ccc2Nc2ccc(F)cc2)c2cc[nH]c2c1=O in your answer.
1.53

Name the recorded log10 half-life at 0.5 μM of the item CCS(=O)(=O)c1ccc(OC2CCN(C(C)=O)CC2)c(-c2cn(C)c(=O)c3[nH]ccc23)c1 in your answer.
1.84

Name the recorded log10 half-life at 0.5 μM of the item CCS(=O)(=O)N1CCN(C(=O)c2ccc(Oc3ccc(F)cc3F)c(-c3cn(C)c(=O)c4[nH]ccc34)c2)CC1 in your answer.
1.49

Name the recorded log10 half-life at 0.5 μM of the item CCS(=O)(=O)c1ccc(O[C@H]2CC[C@@H](OC)CC2)c(-c2cn(C)c(=O)c3[nH]ccc23)c1 in your answer.
1.20

Name the recorded log10 half-life at 0.5 μM of the item Cn1cc(-c2cc(NS(C)(=O)=O)cnc2Oc2ccccc2)c2cc[nH]c2c1=O in your answer.
1.04

Name the recorded log10 half-life at 0.5 μM of the item Cn1cc(-c2cc(-c3ccc(F)nc3)ccc2OCC2CC2)c2cc[nH]c2c1=O in your answer.
0.30

Name the recorded log10 half-life at 0.5 μM of the item CN(C)CCS(=O)(=O)Nc1ccc(Oc2ccc(F)cc2F)c(-c2cn(C)c(=O)c3[nH]ccc23)c1 in your answer.
1.32

Name the recorded log10 half-life at 0.5 μM of the item CNS(=O)(=O)c1cnc(NC2CCCCC2)c(-c2cn(C)c(=O)c3[nH]ccc23)c1 in your answer.
0.95

* * *

# TEST NAME: Human liver microsome stability assay
# Assay type: in vitro ADME
# TEST CONDITIONS: both sexes, human, microsomes, pH 7.4
The reader will find reported half-life at 0.5 μM values listed item by item below.
# unit: min | format: bare number

| COMPOUND | half-life at 0.5 μM, min |
| --- | --- |
| Cn1cc(-c2cc(S(C)(=O)=O)ccc2NC2CCCCC2)c2cc[nH]c2c1=O [Example 147] | 11 |
| Cn1cc(-c2cc(-c3cccnc3)ccc2OCC2CC2)c2cc[nH]c2c1=O [Example 315] | 34 |

Name the recorded half-life at 0.5 μM of the item CNS(=O)(=O)c1ccc(OCC2CC2)c(-c2cn(C)c(=O)c3[nH]ccc23)c1 [Example 250] in your answer.
56
